PROCEDURE_TEXT: melting temperature; fluorescence melt of hairpins on a sequencing array, two-state fit, raised by 9.35 °C to match UV melts
DETAILS: sodium 0.088 M
PARAMETER: Tm (°C)

>>> result_value("GCATCGGGAAACCAACGC ((.(.((....)).).))")
28.3
>>> result_value("GATCATTGTGATGATC ((((((....))))))")
51
>>> result_value("GGATTAGAAATAATCC ((((((....))))))")
42.8
>>> result_value("GGGTAACGAAAGTTCCC (((.(((....))))))")
50.1
>>> result_value("GGAATGGGAAACCATTTC (.(((((....))))).)")
42.2
>>> result_value("GATCTTGGCTAAGATC ((((((....))))))")
48.2
